measurementTarget: UniProtKB P49841
Sequence (P49841 whole entry): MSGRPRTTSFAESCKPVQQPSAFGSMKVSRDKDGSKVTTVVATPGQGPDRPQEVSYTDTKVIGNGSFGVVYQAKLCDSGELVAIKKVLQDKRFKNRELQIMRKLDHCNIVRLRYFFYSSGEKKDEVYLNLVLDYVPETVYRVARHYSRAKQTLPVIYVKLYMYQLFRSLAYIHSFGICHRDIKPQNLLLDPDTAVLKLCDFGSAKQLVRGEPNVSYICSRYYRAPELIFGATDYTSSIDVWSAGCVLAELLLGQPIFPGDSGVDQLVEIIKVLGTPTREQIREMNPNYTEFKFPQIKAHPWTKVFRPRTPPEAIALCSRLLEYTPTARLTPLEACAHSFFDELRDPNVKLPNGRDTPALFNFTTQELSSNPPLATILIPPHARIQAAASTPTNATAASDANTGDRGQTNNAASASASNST
experimentNotes: concentration-response blocking of human GSK3B – biochemical, luminescence, cell-free homogeneous, retest, dose response (AID 434954)
Listed here: items and their measured EC50.
attributeMeasured: EC50

> print(dat)
                                   molecule  measurementtarget  recordedmeasurement
1  CC(C)CC(CO)N1CCN(C(=O)c2ccc(Cl)c(Cl)c2)CCC1=O (centres undefined)   UniProtKB P49841             > 300 µM
2  O=c1cc(O)cc2oc(-c3ccc(O)c(O)c3)c(O[C@@H]3O[C@H](CO)[C@@H](O)[C@H](O)[C@H]3O)c(O)c1-2 [Quercetin 3-O-beta-D-glucoside]   UniProtKB P49841              15.8 µM
3  CCOC(=O)c1ccc2ncc(C(=O)OCC)c(Nc3ccc(N4CCOCC4)cc3)c2c1   UniProtKB P49841             > 300 µM
4  COc1cccc2c1cc1c(=O)n(CC(=O)N3CCC(C)CC3)nc(C)n12   UniProtKB P49841             > 300 µM
